# TEST: Toxicity liver stage against HepG2, at 10uM
# Type: cell-based
# Set-up: test concentration 10 uM, cell line HepG2-A16-CD81EGFP
# STUDY_CONDITIONS: human, HepG2-A16-CD81EGFP cells; read-out: INHIBITION

- MOLECULE: "COc1cccc(O)c1CN1CCCC(Nc2cccc(F)c2)C1 (centres undefined)"
  cytotoxicity at 10 µM, %: -4.47
- MOLECULE: "O=C(c1ccccc1-c1ccccc1)N1CCOC2(CNCCOC2)C1 (centres undefined)"
  cytotoxicity at 10 µM, %: -16.2
- MOLECULE: "Clc1ccc(-n2cc(CNC3CCc4ncnn4C3)cn2)cc1 (centres undefined)"
  cytotoxicity at 10 µM, %: 0.77
- MOLECULE: "Cc1nn(C)c(C)c1CC(C)NC(=O)NCc1ccoc1C (centres undefined)"
  cytotoxicity at 10 µM, %: 0.43
- MOLECULE: "Cc1nnc(CN2CCC(Oc3ccc(F)cc3)CC2)o1"
  cytotoxicity at 10 µM, %: -11.8
- MOLECULE: "COCc1n[nH]c2c1CN(C(=O)c1ccncc1)C2"
  cytotoxicity at 10 µM, %: 16.6
- MOLECULE: "O=C(c1ccc(=O)[nH]n1)N1CCc2ccccc21"
  cytotoxicity at 10 µM, %: 37.9
- MOLECULE: "O=C(c1cc(-c2ccccc2)nc2onc(C3CC3)c12)N1CC[C@H](O)C1"
  cytotoxicity at 10 µM, %: -36.7
- MOLECULE: "CCOCC(=O)NCc1cc(Br)ccc1OC(F)F"
  cytotoxicity at 10 µM, %: 21.9
- MOLECULE: "CCCN1CCN(C(=O)c2ccn(COc3ccc(F)cc3)n2)CC1"
  cytotoxicity at 10 µM, %: 8.88
- MOLECULE: "Cc1cccn2c(=O)cc(CN3CCCCC3Cn3cncn3)nc12 (centres undefined)"
  cytotoxicity at 10 µM, %: 10.7
- MOLECULE: "Cc1nc(C2CCCN(C(=O)c3cccc(S(C)(=O)=O)c3)C2)no1 (centres undefined)"
  cytotoxicity at 10 µM, %: -2.33
- MOLECULE: "O=C(NCc1nncn1C1CC1)C1(c2ccc(F)cc2)CCOCC1"
  cytotoxicity at 10 µM, %: -10.4
- MOLECULE: "CCC(=O)N1CCC2(CC1)COc1ccccc1S(=O)(=O)N(C)C2"
  cytotoxicity at 10 µM, %: -6.71
- MOLECULE: "CCn1c(N)nc2cc(C(=O)N3CCN(c4ccncc4)CC3)cnc21"
  cytotoxicity at 10 µM, %: -8.3
- MOLECULE: "CCNc1cc2c(nn1)CCN(C(=O)CC1CCCCC1)C2"
  cytotoxicity at 10 µM, %: -10.3
- MOLECULE: "COc1c(C(=O)N2CCOC(c3cccs3)C2)c(C)nn1C (centres undefined)"
  cytotoxicity at 10 µM, %: -0.43
- MOLECULE: "Cc1ccc2nc(C)cc(NCCNS(=O)(=O)c3cn(C)nc3C)c2c1"
  cytotoxicity at 10 µM, %: 8.06
- MOLECULE: "CCOC(=O)[C@@H]1[C@@H](c2ccccc2)CN2CCNC[C@H]12"
  cytotoxicity at 10 µM, %: 3.8
- MOLECULE: "CC(C)NC(=O)CC1COC2(CCN(Cc3cccs3)CC2)C1 (centres undefined)"
  cytotoxicity at 10 µM, %: 4.57
- MOLECULE: "N#Cc1c(F)cccc1N1CCN(C(=O)Nc2nncs2)CC1"
  cytotoxicity at 10 µM, %: -0.908
- MOLECULE: "CCn1cc(C(=O)Nc2cc(C)ccc2C)cn1"
  cytotoxicity at 10 µM, %: 0.946
- MOLECULE: "O=C(CCN1CCCC1c1cccs1)N1CCc2sccc2C1 (centres undefined)"
  cytotoxicity at 10 µM, %: -0.636
- MOLECULE: "CC(Nc1cccc2c1OCCO2)C(=O)Nc1ccc(Cl)cc1 (centres undefined)"
  cytotoxicity at 10 µM, %: 2.84

* * *

# TEST: Toxicity liver stage against HepG2, at 10uM
# Format: cell-based
# Design: test concentration 10 uM, cell line HepG2-A16-CD81EGFP
# STUDY_CONDITIONS: human, HepG2-A16-CD81EGFP cells; read-out: INHIBITION
Each entry below lists one item and its recorded cytotoxicity at 10 µM value.

- COMPOUND: "Cc1nc(CN2CCC3(CC2)CCN(C(=O)c2cscn2)C3)cs1"
  cytotoxicity at 10 µM [%]: -71.9
- COMPOUND: "COc1ccc(C(C)(C)C(=O)NCc2n[nH]c(=O)[nH]2)cc1"
  cytotoxicity at 10 µM [%]: 1.07
- COMPOUND: "O=S(=O)(c1ccc(C(F)(F)F)cc1)N1CCC(OCc2ccccn2)C1 (centres undefined)"
  cytotoxicity at 10 µM [%]: 1.22
- COMPOUND: "COc1ccc(C2CCN(CCCC#N)CC2)cc1"
  cytotoxicity at 10 µM [%]: -9.89
- COMPOUND: "Cc1ccc(OCc2ccc(C(=O)O)s2)cc1C"
  cytotoxicity at 10 µM [%]: 9.18
- COMPOUND: "O=C(NC1(C(=O)NCC2CC2)CCCC1)C1Cc2cc(F)ccc2O1 (centres undefined)"
  cytotoxicity at 10 µM [%]: 8
- COMPOUND: "COCCOCC(=O)N1CCC2(CCCN(C3CCOCC3)C2=O)C1 (centres undefined)"
  cytotoxicity at 10 µM [%]: -133
- COMPOUND: "COCCn1ccc(NC(=O)Nc2cccnc2)n1"
  cytotoxicity at 10 µM [%]: -12.3
- COMPOUND: "Cc1nonc1CN(C)Cc1nc(-c2cccc(F)c2F)oc1C"
  cytotoxicity at 10 µM [%]: -2.71
- COMPOUND: "Cc1csc(N2CCCN(C(=O)c3occc3C)CC2)n1"
  cytotoxicity at 10 µM [%]: -13.8
- COMPOUND: "O=C(c1cc(COc2ccc3c(c2)OCO3)[nH]n1)N1CCCO1"
  cytotoxicity at 10 µM [%]: -1.59
- COMPOUND: "Cc1cc(NC(=O)N2CCCC(O)C2)nn1-c1ccccc1Cl (centres undefined)"
  cytotoxicity at 10 µM [%]: 4.99
- COMPOUND: "COc1c(CNCCNC(=O)c2ccccc2F)c(C)nn1C"
  cytotoxicity at 10 µM [%]: -0.644
- COMPOUND: "c1cncc(-c2ccnn2CN2CCOCC2)c1"
  cytotoxicity at 10 µM [%]: 3.44
- COMPOUND: "Cn1cc(Cl)c(C(=O)N2CCC(N3CCc4ccccc4C3)CC2)n1"
  cytotoxicity at 10 µM [%]: -2.27
- COMPOUND: "CCCc1nn(Cc2csc(CC)n2)c(=O)o1"
  cytotoxicity at 10 µM [%]: -43.1
- COMPOUND: "CC(=O)N(C)Cc1ncn2c1CN(C(=O)CC1CC1)CCC2"
  cytotoxicity at 10 µM [%]: -110
- COMPOUND: "O=C(c1cc(-n2cnnn2)ccc1Cl)N1CCOCC1"
  cytotoxicity at 10 µM [%]: 6.22
- COMPOUND: "CCc1n[nH]c(NC(=O)c2ccc(Cl)cn2)c1Br"
  cytotoxicity at 10 µM [%]: -5.37
- COMPOUND: "O[C@@H]1C[C@@H](c2nc(-c3ccccc3)no2)N(Cc2cccnc2)C1"
  cytotoxicity at 10 µM [%]: 3.69
- COMPOUND: "CC(C)CC(NC(=O)CSc1ccc(F)c(Cl)c1)C(=O)O (centres undefined)"
  cytotoxicity at 10 µM [%]: -46
- COMPOUND: "Cc1c(Br)cccc1NC(=O)N(C)CCO"
  cytotoxicity at 10 µM [%]: -24.5
- COMPOUND: "Cc1cnn(CC2CCCN2Cc2nc(N)c3ccccc3n2)c1 (centres undefined)"
  cytotoxicity at 10 µM [%]: -29.5
- COMPOUND: "Cc1cc(C(=O)N2CCC(c3nnc(Cn4ccnc4)n3C)CC2)cs1"
  cytotoxicity at 10 µM [%]: -114
- COMPOUND: "NC(=O)NCC1CCCCN1C(=O)c1ccc(Cl)s1 (centres undefined)"
  cytotoxicity at 10 µM [%]: -12.1
- COMPOUND: "CN(C)C(C(=O)N1CC(Oc2ccccc2F)C1)c1ccccc1F (centres undefined)"
  cytotoxicity at 10 µM [%]: -0.598
- COMPOUND: "CSCC(=O)N1CCCN(c2ccncc2C)CC1"
  cytotoxicity at 10 µM [%]: -6.09
- COMPOUND: "CCCn1ncc(-c2ccnc(NC3CCCc4ccccc43)n2)c1C (centres undefined)"
  cytotoxicity at 10 µM [%]: 20.6
- COMPOUND: "CCOc1cc(C(=O)N2CCCC(c3noc(C)n3)C2)ccn1 (centres undefined)"
  cytotoxicity at 10 µM [%]: -4.49
- COMPOUND: "CN1CCCN(C(=O)NCCNc2ncccc2C#N)CC1"
  cytotoxicity at 10 µM [%]: 6.75
- COMPOUND: "COCC1CN(C(=O)COc2ccccc2C)Cc2ncn(C)c21 (centres undefined)"
  cytotoxicity at 10 µM [%]: -2.17
- COMPOUND: "Cc1cnn(CC2CCCCN2C(=O)c2ccc3nnc(C)n3c2)c1 (centres undefined)"
  cytotoxicity at 10 µM [%]: 7.87
- COMPOUND: "O=C(Cc1ccccc1F)NCCN1CCOCC1"
  cytotoxicity at 10 µM [%]: -46.1
- COMPOUND: "O=C1CC2(CCN(Cc3ccoc3)C2)CN1c1ccc2c(c1)OCO2 (centres undefined)"
  cytotoxicity at 10 µM [%]: -6.72
- COMPOUND: "O=C1NCCCCC1NC(=O)C1(c2cccc(Cl)c2)CC1 (centres undefined)"
  cytotoxicity at 10 µM [%]: 2.68
- COMPOUND: "COc1ccc(-c2cc(C3CCCCCN3S(C)(=O)=O)on2)cc1 (centres undefined)"
  cytotoxicity at 10 µM [%]: 0.46
- COMPOUND: "Cc1cc(N2CCCN(C(=O)Cc3ccc(O)c(Cl)c3)CC2)ccn1"
  cytotoxicity at 10 µM [%]: -17.3
- COMPOUND: "CC(C)N1CCC(Nc2ccn(C)n2)C1=O (centres undefined)"
  cytotoxicity at 10 µM [%]: -0.794
- COMPOUND: "Cc1ccc(CNC(=O)NC2CCC(O)CC2)c(N2CCCC2)c1 (centres undefined)"
  cytotoxicity at 10 µM [%]: -16.4
- COMPOUND: "CC(C)C(C)N(C(=O)c1cc2c([nH]c1=O)CCCC2=O)C1CC1 (centres undefined)"
  cytotoxicity at 10 µM [%]: -3.45
- COMPOUND: "c1ccc(CN(Cc2cccc3cnccc23)CC2CCCO2)nc1 (centres undefined)"
  cytotoxicity at 10 µM [%]: -5.68
- COMPOUND: "COc1cccc(OC)c1-c1ccnc2cc(CC(=O)NC(C)C)nn12"
  cytotoxicity at 10 µM [%]: -8.05
- COMPOUND: "COc1cccc(CCC(=O)N2CCN(CC(C)(C)O)CC2)c1"
  cytotoxicity at 10 µM [%]: -8.39
- COMPOUND: "CCn1nc2c(cc1=O)CN(CCOc1ccccc1C#N)CC2"
  cytotoxicity at 10 µM [%]: 19.2
- COMPOUND: "Cc1ccc(Oc2ccc(NC(=O)NCC3CCOC3)cn2)cc1C (centres undefined)"
  cytotoxicity at 10 µM [%]: -5.28
- COMPOUND: "N#CC1(C(=O)N2CCN(Cc3cscn3)CC2)CCCC1"
  cytotoxicity at 10 µM [%]: -8.08
- COMPOUND: "Cc1ccc(N2N=C(C(N)=O)S(=O)(=O)c3cccnc32)cc1"
  cytotoxicity at 10 µM [%]: 4.28
- COMPOUND: "Cc1ccc(S(=O)(=O)N2CCCC3(CCCN3S(C)(=O)=O)C2)cc1F (centres undefined)"
  cytotoxicity at 10 µM [%]: 2.05
- COMPOUND: "CS(=O)(=O)N[C@@H]1CCO[C@]2(CCN(C(=O)c3cscn3)C2)C1"
  cytotoxicity at 10 µM [%]: -67.2
